B1: SPSB1 (parent)
chain: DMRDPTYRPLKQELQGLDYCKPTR

# Variants of: B1
# TEST_SUMMARY: protein stability index of a GFP-peptide fusion (GPS, HEK-293T) (PSI 1-6); higher = more stable;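 note: lentivirally expressed fusions sorted by FACS into six bins by GFP to DsRed ratio, PSI derived from sequencing read proportions per bin multiplied by bin number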
# CONDITION_SET: c terminus: a fixed tail appended
PROPERTY_NAME: protein stability index
In your answer, state the number alone without any accompanying words.

The cases that follow already have their protein stability index on record.
1. M2W 2.57
2. P22T 3.07
3. Q12H 3.46

Lookup result for T23I ; measured protein stability index: 2.52

What the record says about M2H : protein stability index is 3.64

Given item D4S , the value recorded as its protein stability index is 2.61

Entry Q12W , protein stability index reported as 2.35

# protein stability index of R24K = 3.09

Please fill in: protein stability index reported for M2R = 3.71

The variant listed as L10S shows protein stability index equal to 3.56

The variant identified as L10R registered its protein stability index at 2.93

Documented protein stability index of P22F : 2.85

Data point: P5S ; protein stability index = 3.61

The measured protein stability index associated with D4I reads 3.13

Form field protein stability index, entry T23C : 3.3

// protein stability index lookup, variant = T23W , result: 1.76

Looking up Y7F , I see its protein stability index listed as 2.98

Looking up R3T , I see its protein stability index listed as 3.42

P22L yielded protein stability index of 3.18

Measured protein stability index, Q15V : 2.73

Note to self: protein stability index recorded for T23Y was 2.5

Lab book: protein stability index of P5V noted as 3.01
